Overview of recorded pKd for various molecules
# SYSTEM: Peptidyl-prolyl cis-trans isomerase NIMA-interacting 1 (Homo sapiens, UniProt Q13526, S16A/Y23A)
# Sequence (Q13526 whole entry S16A/Y23A, the tested form may be a part): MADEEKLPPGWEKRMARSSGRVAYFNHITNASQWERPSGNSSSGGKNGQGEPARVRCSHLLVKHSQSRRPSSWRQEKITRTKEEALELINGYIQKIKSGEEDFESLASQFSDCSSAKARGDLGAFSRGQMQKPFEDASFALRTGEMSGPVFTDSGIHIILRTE
# EXPERIMENT DESCRIPTION: Binding affinity to N-terminal MBP fused and Texas-red-labeled full-length human Pin1 S16A/Y23A mutant expressed in Escherichia coli assessed as increase in fluorescence anisotropy by spectrofluorimetry
# DETAILS: read-out: Kd
pKd: −log10 of the molar value.

# SAMPLE SMILES, pKd
records = [
    ("C[C@@H]1NC(=O)[C@H](CCCNC(=N)N)NC(=O)[C@H](Cc2ccc3ccccc3c2)NC(=O)[C@H]2CCCCN2C(=O)[C@@H](CC(=O)O)NC(=O)CN(C)C(=O)[C@@H]2CCCN2C(=O)c2cc3cc(c2)C(=O)NC[C@@H](C(=O)N[C@@H](CCCCN)C(=O)O)NC(=O)[C@H](CCCNC(=N)N)NC(=O)[C@H](CCCNC(=N)N)NC(=O)[C@H](CCCNC(=N)N)NC(=O)[C@H](CCCNC(=N)N)NC(=O)[C@H](Cc2ccc4ccccc4c2)NC(=O)[C@H](Cc2ccccc2)NC(=O)[C@H](CNC3=O)NC(=O)CCNC1=O", 5.68),
    ("C[C@H]1NC(=O)[C@H](CC(=O)O)NC(=O)[C@H](CCCNC(=N)N)NC(=O)[C@H](Cc2ccc3ccccc3c2)NC(=O)[C@H]2CCCCN2C(=O)[C@@H](CC(=O)O)NC(=O)CN(C)C(=O)[C@@H]2CCCN2C(=O)c2cc3cc(c2)C(=O)NC[C@H](NC1=O)C(=O)N[C@@H](Cc1ccccc1)C(=O)N[C@@H](Cc1ccc2ccccc2c1)C(=O)N[C@@H](CCCNC(=N)N)C(=O)N[C@@H](CCCNC(=N)N)C(=O)N[C@@H](CCCNC(=N)N)C(=O)N[C@@H](CCCNC(=N)N)C(=O)N[C@H](C(=O)N[C@@H](CCCCN)C(=O)O)CNC3=O", 5.50),
]
